The reported numbers originate from PubChem BioAssay (NCI).

I'd be grateful if you could share measured TGI for these entries.
Test system: RPMI-8226 leukemia
TEST_SUMMARY: NCI tumour cell line growth inhibition, 48 h
Numbers only, in µM.

Some molecules with known TGI results, for comparison:
MOLECULE	UNITS_LABEL	EXPERIMENTAL_VALUE
Cc1cccc(C(C)(C)C)c1NC(=O)CC1C(=O)Nc2ccccc2S1(=O)=O (configuration not stated)	µM	17.2
O=C(Cc1ccc(F)c(F)c1)Nc1cc(C2(C(F)(F)F)CC2)nn1Cc1ccccc1	µM	8.67
CCN(CC)CCCNCc1cc(-c2ccccc2)nc2ccccc12	µM	16.5
CO/N=C(\C)c1ccc(Nc2cc(-c3ccccc3)nc3ccc(OC)cc23)cc1	µM	9.64
COc1ccc(/C=C2\CCS(=O)(=O)c3ccccc3C2=O)cc1	µM	61

--- query ---
**Q:** Need TGI, item COc1ccc2ccccc2c1C1NC(=O)c2ccccc2N1 (configuration not stated)
**A:** 8.06

---

Tested on: COLO 205 colon
TEST_SUMMARY: NCI tumour cell line growth inhibition, 48 h
I'd be grateful if you could share measured TGI for these entries.

COMPOUND	TARGET_OR_SYSTEM	EXPERIMENTAL_VALUE
OC(c1ccc(C(F)(F)F)cc1)C(F)(F)c1nc2ccccc2o1 (stereo not given)	COLO 205 colon	> 100 µM

Would you mind giving TGI for every compound in the list below?
1. CN(C)C(c1ccccc1)C1COC2Cc3ccccc3C1O2 (stereo not given)
2. O=C(Nc1ccncc1)C(=O)c1cn(S(=O)(=O)c2ccc(Cl)cc2)c2ccccc12

**A:**
["> 100 µM", "> 100 µM"]

---

I'd be grateful if you could share measured GI50 for these entries.
Test system: NCI/ADR-RES ovarian
TEST_SUMMARY: NCI tumour cell line growth inhibition, 48 h

Some molecules with known GI50 results, for comparison:
MOLECULE	GI50
CC(=O)C1=C(O)C=C2Oc3c(C(=O)/C=C/c4c(Cl)cccc4Cl)c(O)c(C)c(O)c3[C@]2(C)C1=O	0.786 µM
C#Cc1c(/C=C/C(=O)OCC)ccc2ccccc12	21.3 µM
O=Nc1ccc(NO)c2ccccc12	2.92 µM
CC(C)=CCC/C(C)=C/CC/C(C)=C/CSc1ccccc1C(=O)O	34.5 µM
C=C1CCC2C3(C)COC(c4ccccc4)OC3CCC2(C)C1/C=C/C1=CCOC1=O (stereo unspecified)	3.17 µM

--- query ---
**Q:** Need GI50, item `O=C1C=CC(=Nc2cc(Br)c(O)c(Br)c2)C=C1`
**A:** 47.2 µM

---

Test system: OVCAR-3 ovarian
TEST_SUMMARY: NCI tumour cell line growth inhibition, 48 h; in the data active means GI50 below about 0.43 µM; inactive means the rest
Pick one: label 1 = active, label 0 = inactive

Example entries and their recorded answers appear below.
COMPOUND	CLASS_ASSIGNMENT
Clc1ccc(-c2c3c(nn2-c2ccccn2)CCc2ccccc2-3)cc1Cl	label 0
Cc1csc(/C=C/C(=O)c2nnn(-c3ccnc4c(C(F)(F)F)cccc34)c2C)c1	label 0
COC(=O)c1cc(O)c2cc3c(cc2c1-c1cc(OC)c(OC)c(OC)c1)OCO3	label 1
O=C(COc1cc(O)c2c(=O)cc(-c3ccccc3)oc2c1)Nc1ccccc1C(F)(F)F	label 0

**Q:** // return assay outcome for `C#CCSc1cc(Cl)c(C)cc1S(=O)(=O)Nc1nc2ccccc2o1`
**A:** label 0

**Q:** // return assay outcome for `CC(C)([NH-])CO.CC(C)([NH-])CO.[Cl][Cd][Cl]`
**A:** label 0

**Q:** // return assay outcome for CCC[CH2][Sn]1([CH2]CCC)[O]CC(CN(C)Cc2ccccc2)[O]1 (configuration not stated)
**A:** label 0

**Q:** // return assay outcome for `CC(=O)C1=C(O)C=C2Oc3c(C(=O)/C=C/c4c(Cl)cccc4Cl)c(O)c(C)c(O)c3[C@]2(C)C1=O`
**A:** label 0

**Q:** // return assay outcome for CCN(CC)c1ccc(C(O)C2=CC(=O)c3ccccc3C2=O)cc1 (configuration not stated)
**A:** label 0

---

I'd be grateful if you could share measured TGI for these entries.
Test system: HS 578T breast
TEST_SUMMARY: NCI tumour cell line growth inhibition, 48 h

MOLECULE	ASSAY_READOUT	EXPERIMENTAL_VALUE
COc1cc(N(C)C)c(OC)cc1/C=C\c1ccnc2ccccc12	TGI	> 10 µM
COC1CC(COCc2ccccc2)CC(OC)O1 (stereo not drawn)	TGI	> 100 µM

--- query ---
**Q:** Need TGI, item Cn1cnc([N+](=O)[O-])c1Sc1nc(N)nc2c1ncn2C1CC(O)C(CO)O1 (stereo not drawn)
**A:** > 100 µM

---

Test system: UO-31 renal
TEST_SUMMARY: NCI tumour cell line growth inhibition, 48 h
ASSAY_READOUT: TGI

Some compounds with known TGI results, for comparison:
COMPOUND	TGI
COC(=O)C(C(=O)OC)C1CCCC(=O)C1 (configuration not stated)	> 100 µM
COC(=O)C(C(=O)C(=O)Nc1ccc([N+](=O)[O-])cc1[N+](=O)[O-])c1nc2ccc(Cl)cc2[nH]c1=O (configuration not stated)	> 100 µM
C#Cc1c(/C=C/C(=O)OCC)ccc2ccccc12	26.6 µM
CC(C)C(=O)Nc1cc(C(F)(F)F)ccc1[N+](=O)[O-]	> 100 µM
C/C(CC(O)(/C=N/O)c1ccccc1)=N/O (configuration not stated)	> 100 µM
O=C1C2=C(CC3=C(C2)CS(=O)(=O)C3)C(=O)C2=C1CC1=C(C2)CS(=O)(=O)C1	> 63.4 µM

--- query ---
**Q:** Need TGI, item `O=c1c2cc3c(=O)n4c(cc(-c5ccccc5)c5cc(Cl)ccc54)nc3cc2nc2cc(-c3ccccc3)c3cc(Cl)ccc3n12`
**A:** > 100 µM

---

Test system: HOP-62 NSCLC
TEST_SUMMARY: NCI tumour cell line growth inhibition, 48 h
ASSAY_READOUT: TGI

Some compounds with known TGI results, for comparison:
COMPOUND	EXPERIMENTAL_VALUE
COc1ccc(N2C(=O)C3c4[nH]c5ccc(Br)cc5c4C4CCC(C(C)(C)C)CC4C3C2=O)cc1 (centres undefined)	> 100 µM
C#Cc1c(/C=C/C(=O)OCC)ccc2ccccc12	95.5 µM
O=c1c(Br)cc2nc3ccccc3sc-2c1Br	> 100 µM
COc1ccc2c(=O)cc(C(Cl)(Cl)Cl)oc2c1	27.6 µM
CC1(C)OC(=O)N(c2ccccc2)C12C=Cc1cccc([N+](=O)[O-])c1O2 (centres undefined)	> 100 µM

Would you mind giving TGI for every compound in the list below?
1. C[C@@]12CCC[C@@](C)(C(=O)O)C1CC[C@]13C[C@@](O)(CO)[C@](O)(CCC12)C3 (some centres undefined)
2. NC(Cc1ccc(N(CCCl)CCCl)cc1)C(=O)NC(CCC(=O)O)C(=O)O (centres undefined)
3. CN(Cc1ccccc1)c1ccc(CO)c(Cl)c1
4. CCOC(=O)C1=CCOc2cc(N(C)C)ccc21

**A:**
1. > 100 µM
2. > 100 µM
3. > 58.6 µM
4. > 100 µM

---

Test system: EKVX NSCLC
TEST_SUMMARY: NCI tumour cell line growth inhibition, 48 h
ASSAY_READOUT: GI50

Some compounds with known GI50 results, for comparison:
COMPOUND	GI50
C=C1CCC2C3(C)COC(c4ccccc4)OC3CCC2(C)C1/C=C/C1=CCOC1=O (centres undefined)	13.7 µM
Oc1ccc(-c2nc3ccccc3s2)cc1CN(Cc1ccccn1)Cc1ccccn1	1.2 µM
Cn1c2c(c3ccc([N+](=O)[O-])cc3c1=O)C(=O)c1ccccc1-2	> 100 µM

--- query ---
**Q:** Hello, I am looking for reported GI50 with EKVX NSCLC for `CC(C)=CCC[C@](C)(O)[C@H]1CC[C@]2(C)[C@@H]1CC[C@@H]1[C@@]3(C)CC/C(=N/O)C(C)(C)[C@@H]3CC[C@]12C` . Could you help?
**A:** 10.1 µM

---

I'd be grateful if you could share measured TGI for these entries.
Test system: PC-3 prostate
TEST_SUMMARY: NCI tumour cell line growth inhibition, 48 h

COMPOUND_SMILES	TARGET_OR_SYSTEM	EXPERIMENTAL_VALUE
O=C(NCCCO)c1cc(Cl)ccc1O	PC-3 prostate	10.2 µM
O=C1C(=O)N(c2cccc(C(F)(F)F)c2)C(=S)N1c1ccccc1	PC-3 prostate	> 100 µM

--- query ---
**Q:** Need TGI, item `Nc1c(C(=O)Nc2cccc(F)c2)sc2nc3c(cc12)C(=O)CCC3`
**A:** > 100 µM

---

I'd be grateful if you could share measured TGI for these entries.
System: MDA-MB-231 breast
TEST_SUMMARY: NCI tumour cell line growth inhibition, 48 h

COMPOUND	TARGET_OR_SYSTEM	TGI
CC(=O)NC1(c2cc3ccccc3s2)CCCCCC1	MDA-MB-231 breast	> 100 µM

Would you mind giving TGI for every compound in the list below?
1. Oc1ccc(C(c2ccc(O)cc2)c2ccc(O)cc2)cc1
2. S=C1CCSc2c(ccc3ccccc23)N1
3. C/C=C(\C)C(O)C(C)C(O)C/C=C(C)/C=C(\C)C/C(C)=C/C/C=C(\C)C(O)C(C)c1ccc(CCC)c(=O)o1 (stereo not drawn)

**A:**
1. 41.8 µM
2. > 100 µM
3. 26.4 µM

Would you mind giving TGI for every compound in the list below?
1. O=C1c2ccccc2-c2nnc3c(c21)-c1ccccc1C3
2. O=C(O)CCSCc1ccccc1
3. CCOC(=O)c1cc2/c(=C\c3ccc(N(C)C)cc3)c3ccccc3n2[n+]1C
4. Nc1nc2c(ncn2C2C=CC(CO)C2)c(=O)[nH]1 (stereo not drawn)

**A:**
["> 100 µM", "> 100 µM", "18.9 µM", "> 100 µM"]
